- EXPERIMENTAL PROTOCOL: qHTS assay to identify small molecule antagonists of the TGF-beta/Smad signaling pathway - cell viability counter screen (AID 1346824); also: nearly all actives have a fitted effect of over 50% in size
- CONDITION NOTES: SBE-bla HEK293T viability, CellTiter-Glo luminescence; series mostly up to 76.8 µM
Results filed as inconclusive are left out. The source made the active and inactive calls. Calls follow the shape of the dose curve; as a rule, active = well fitted cell-killing curve with a large enough effect in the repeat runs; inconclusive = weak or mixed curves; inactive = flat fitted curve, though single readings scatter.
MEASURE NAME: viability change, negative = cytotoxic

Please review the entries below; each comes with its answer.
MOLECULE	viability change, negative = cytotoxic
N#Cc1ccc(C/C(=N/NC(=O)Nc2ccc(OC(F)(F)F)cc2)c2cccc(C(F)(F)F)c2)cc1	inactive
Cc1c(Cl)c(=O)oc2cc(O)ccc12	inactive
CCOc1ccc([N+](=O)[O-])cc1	inactive
CC(C)(C)c1cc(CCC(=O)OCCSCCOC(=O)CCc2cc(C(C)(C)C)c(O)c(C(C)(C)C)c2)cc(C(C)(C)C)c1O	inactive
C1=CCCC1	inactive

viability change, negative = cytotoxic for N#Cc1nc(Cl)c(Cl)c(Cl)c1Cl ?
inactive

viability change, negative = cytotoxic for O=C(Nc1ccc([N+](=O)[O-])cc1)Nc1ccc([N+](=O)[O-])cc1 (tested in a mixture with another compound) ?
inactive

viability change, negative = cytotoxic for CCCC(C)C=O (stereo not given) ?
inactive

viability change, negative = cytotoxic for CC(C)=NNC(N)=S ?
inactive

viability change, negative = cytotoxic for Cc1ccc2nc(-c3ccc(N)cc3)sc2c1S(=O)(=O)O ?
inactive

viability change, negative = cytotoxic for O=C(NCc1ncc(C(F)(F)F)cc1Cl)c1c(Cl)cccc1Cl ?
inactive
